target: GABA-A receptor; alpha-3/beta-3/gamma-2 (Homo sapiens, UniProt P18507+P28472+P34903); assay: Displacement of [3H]Ro 15-1788 from human GABA-Aalpha3 receptor plus beta-3-gamma-2 expressed in mouse L(tk-) cells
Sequence (P18507 whole entry): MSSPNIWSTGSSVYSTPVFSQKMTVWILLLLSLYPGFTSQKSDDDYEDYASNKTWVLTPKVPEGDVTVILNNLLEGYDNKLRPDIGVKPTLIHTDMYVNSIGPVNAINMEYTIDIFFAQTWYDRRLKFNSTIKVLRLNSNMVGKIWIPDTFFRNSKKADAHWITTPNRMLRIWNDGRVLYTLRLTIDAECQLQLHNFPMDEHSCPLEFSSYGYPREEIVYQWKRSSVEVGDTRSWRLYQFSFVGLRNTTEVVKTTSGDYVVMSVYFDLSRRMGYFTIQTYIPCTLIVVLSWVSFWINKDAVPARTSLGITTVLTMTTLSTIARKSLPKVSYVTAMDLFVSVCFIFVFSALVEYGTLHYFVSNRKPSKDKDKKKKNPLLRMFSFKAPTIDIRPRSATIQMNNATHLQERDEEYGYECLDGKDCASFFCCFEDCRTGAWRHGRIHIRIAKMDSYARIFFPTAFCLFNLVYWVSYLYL
Sequence (P28472 whole entry): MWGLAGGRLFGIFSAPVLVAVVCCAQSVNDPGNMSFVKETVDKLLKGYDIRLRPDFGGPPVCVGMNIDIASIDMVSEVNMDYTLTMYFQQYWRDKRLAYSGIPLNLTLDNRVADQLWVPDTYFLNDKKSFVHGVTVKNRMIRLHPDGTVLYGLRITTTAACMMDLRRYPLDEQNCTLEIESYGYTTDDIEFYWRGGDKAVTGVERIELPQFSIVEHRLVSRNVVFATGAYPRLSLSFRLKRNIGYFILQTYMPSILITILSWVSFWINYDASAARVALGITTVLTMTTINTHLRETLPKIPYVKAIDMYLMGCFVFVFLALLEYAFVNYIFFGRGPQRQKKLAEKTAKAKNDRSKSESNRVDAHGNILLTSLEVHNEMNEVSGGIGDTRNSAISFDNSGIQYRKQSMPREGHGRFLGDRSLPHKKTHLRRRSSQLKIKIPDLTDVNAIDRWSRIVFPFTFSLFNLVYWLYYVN
Sequence (P34903 whole entry): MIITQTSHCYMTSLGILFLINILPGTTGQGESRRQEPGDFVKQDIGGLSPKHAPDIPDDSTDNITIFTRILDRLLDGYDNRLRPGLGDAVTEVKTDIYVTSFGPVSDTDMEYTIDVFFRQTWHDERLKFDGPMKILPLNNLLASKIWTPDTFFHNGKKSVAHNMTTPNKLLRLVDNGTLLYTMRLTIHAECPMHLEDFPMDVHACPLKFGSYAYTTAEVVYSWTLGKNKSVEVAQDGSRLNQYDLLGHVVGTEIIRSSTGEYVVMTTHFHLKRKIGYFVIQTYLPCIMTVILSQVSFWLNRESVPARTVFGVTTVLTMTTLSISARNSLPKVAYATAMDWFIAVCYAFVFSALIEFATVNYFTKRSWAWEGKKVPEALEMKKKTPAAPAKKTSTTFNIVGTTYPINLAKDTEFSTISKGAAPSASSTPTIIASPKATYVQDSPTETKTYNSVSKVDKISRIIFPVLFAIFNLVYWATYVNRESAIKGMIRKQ
MEASURED PARAMETER: pKi
Quick note: pKi values are minus log10 of concentrations in mol/L.

// field: pKi; key: CC(C)(O)c1ccn2c(-c3ccc(F)c(-c4ccccc4C#N)c3)cnc2c1 ; value = 8.29

Entry CC(C)(O)c1ccn2c(-c3ccc(F)c(-c4ccccc4C#N)c3)cnc2c1F , pKi reported as 9.49

Just so you know, measured pKi for CC(C)(O)c1ccn2c(-c3ccc(F)c(-c4ccccc4C#N)c3)cnc2n1 came out at 9.33
